- System: MALME-3M melanoma
- method.notes: NCI tumour cell line growth inhibition, 48 h
endpoint.label: TGI (µM)
Reply with just the number (in µM).

For orientation, consider the following solved cases.
compound	TGI, µM
Cc1c(C(=O)c2ccccc2)[n+](=O)c2cc(F)c(F)cc2n1[O-]	7.76
Cc1c(Cl)c(C)c(Cl)c(O)c1Cl	54.3
O=c1n(CC2CS2)c2ccccc2n1CC1CS1 (stereo not drawn)	74.4
OC(Cc1cc(CC(O)(C(F)(F)F)C(F)(F)F)nc(CC(O)(C(F)(F)F)C(F)(F)F)c1)(C(F)(F)F)C(F)(F)F	7.96
CC1(C)[C@H]2Cc3cc4nc5ccccn5c4cc3[C@@H]1C2	25.7

Prompt line: Input `Cc1cc(C)nc(NS(=O)(=O)c2ccc(NC(=O)COC(=O)c3cccc4c(=O)c5ccccc5[nH]c34)cc2)n1` , output reported TGI.
Response line: 73

Prompt line: Quick one: give measured TGI for `CN(C)CCCCNc1ccc(NCCCCN(C)C)c2c1C(=O)c1c(O)ccc(O)c1C2=O`
Response line: 33.5

Prompt line: Identify TGI associated with the compound `CN(C)CC(C)(C)CN1c2ccccc2Sc2ccccc21`
Response line: 27.9

Prompt line: Annotate the compound `N=c1oc2cc(O)ccc2cc1C(=O)Nc1cccc2ccccc12` with its measured TGI.
Response line: 15.5

Prompt line: Quickly give me recorded TGI for `CCCCOC(=O)c1c(C)[nH]c(/C=C2\N=C(c3ccc[nH]3)C=C2OC)c1C`
Response line: 2.82

---

- Test system: NCI-H522 lung
- method.notes: NCI tumour cell line growth inhibition, 48 h
endpoint.label: TGI

molecule	assayed.system	TGI
Cn1c(=O)c2c(=O)cc(N)[nH]c2n(C)c1=O	NCI-H522 lung	> 100 µM

Prompt line: Assign TGI to the following record: `Fc1ccc(N=C2C=CC(=Nc3ccc(F)cc3)c3ccccc32)cc1`
Response line: > 100 µM

Prompt line: Note TGI for the molecule shown: CC1(C)N([O-])[N+](=O)C1(C)O (configuration not stated)
Response line: > 100 µM

Prompt line: Look up TGI of `C=C(Br)COc1ccc2c(C)cc(=O)oc2c1` and report it.
Response line: > 100 µM

Prompt line: Identify TGI associated with the molecule O=C(CC(=O)N1N=C(N(c2ccccc2)c2ccccc2)CC1c1ccccc1)Nc1cccc(Cl)c1 (configuration not stated)
Response line: > 100 µM

Prompt line: Please indicate TGI recorded for `CC(=O)Nc1cc2c3c(cccc3c1)-c1ccccc1-2`
Response line: > 100 µM

---

- Tested on: KM12 colon
- method.notes: NCI tumour cell line growth inhibition, 48 h
endpoint.label: TGI

>>> df
                                   molecule  observed_result
0          Cn1c(=O)cc(Nc2ccc(N)cc2)[nH]c1=O         > 100 µM
1  CN(C)NC1=NS(=O)(=O)c2cc3c(=O)n(C)[nH]c3cc2S1          > 10 µM

Prompt line: Return TGI for the following molecule: CC(=O)Oc1cc(-c2oc3cc(OC(C)=O)c(C4OC(CO)C(O)C(O)C4O)c(OC(C)=O)c3c(=O)c2O)c(OC(C)=O)cc1O (stereo not drawn)
Response line: > 100 µM

Prompt line: Assign TGI to the following record: `Fc1ccc(Nc2nc3nonc3nc2Nc2ccc(I)cc2)cc1`
Response line: 11.4 µM

Prompt line: Determine its reported TGI: `COc1ccc(-c2cc(=O)c3cc(O)ccc3o2)c(OC)c1OC`
Response line: 87.7 µM

Prompt line: Look up TGI of `O=C1N[C@H](C(=O)O)[C@@H](c2ccc(OCc3ccccc3)cc2)O1` and report it.
Response line: > 100 µM

Prompt line: Consider the molecule `CCCCOC(=O)c1c(C)[nH]c(/C=C2\N=C(c3ccc[nH]3)C=C2OC)c1C` . State its measured TGI.
Response line: 1.86 µM

Prompt line: Complete the entry with TGI for `COc1cc(N(CCCl)CCCl)ccc1/C=N\NC(=O)c1cccnc1`
Response line: > 100 µM

---

- Test system: SK-MEL-28 melanoma
- method.notes: NCI tumour cell line growth inhibition, 48 h
# reported TGI; entries follow
Give your result in µM as a bare value.

>>> df
                                   compound      assayed_system  units  observed_result
0  O=C1OCC2=C1C(c1cccc(Cl)c1)c1cc3c(cc1N2CCO)CCC3 (centres undefined)  SK-MEL-28 melanoma     µM             20.2

Continue with the compound presented below.
Prompt line: Fill: TGI (SK-MEL-28 melanoma) for this compound `Nc1c(C(=O)Nc2cccc(C(F)(F)F)c2)sc2nc3c(cc12)CCCCCC3`
Response line: 15.9

---

TGI for assorted compounds
- System: SK-MEL-5 melanoma
- method.notes: NCI tumour cell line growth inhibition, 48 h
Quick note: give the figure in µM, leave out the unit.

>>> df
                                   compound  observed_result
0  COC(=O)c1c2c(c(C)[n+]([O-])c1C)C(=O)C(NCc1ccc(O)cc1)=CC2=O             2.59
1  Cc1cc(Cl)cc2c1NC(=O)C2(O)C(C(=O)c1ccccc1)c1ccccc1 (configuration not stated)             45.4

Prompt line: Return value of TGI for input `O=C(CCN1CCCN(c2cnc3ccccc3n2)CC1)c1csc2ccccc12` , no commentary.
Response line: 30

---

- Tested on: MALME-3M melanoma
- method.notes: NCI tumour cell line growth inhibition, 48 h
endpoint.label: TGI

molecule	TGI
Cc1ncc(CBr)c(CBr)c1O	> 100 µM
CC1C(O)=C(O)c2ccccc2N1O (stereo not drawn)	> 100 µM
CC1=CC[C@@H](C(C)(C)O)C[C@@H]1O	> 5000 µM
Nc1n[nH]c2ccc([C@@H]3Nc4ccc5cn[nH]c5c4[C@H]4C5CCC(C5)[C@@H]34)cc12 (stereo partly drawn)	> 100 µM

Prompt line: Query TGI for `COC(=O)c1c2c(cc3c1CC1(C3)Cc3cc4c(c(C(=O)OC)c3C1)CCC4)CCC2`
Response line: > 100 µM

Prompt line: Check the records and state TGI for CCCCCCCCCCCCCCCC(=O)OC1C(O)C(O)C(O)C(O)C12CO2 (stereo not drawn)
Response line: > 100 µM

Prompt line: Report TGI for COc1cc(C2CC(c3cccc(Nc4ccnc5cc(Cl)ccc45)c3)=NN2c2ccccc2)cc(OC)c1OC (stereo not drawn)
Response line: > 100 µM

Prompt line: Fill in reported TGI for this entry: `CC(C)c1c(O[Si](C(C)C)(C(C)C)C(C)C)cc2c(c1O)CC[C@H]1C(C)(C)CCC[C@]21C`
Response line: > 100 µM

Prompt line: Supply reported TGI belonging to this molecule: `O=c1oc2ccccc2n1P(=O)(Oc1ccc(Cl)cc1)n1c(=O)oc2ccccc21`
Response line: > 100 µM

Prompt line: Give a short answer stating reported TGI for `NC(=O)c1csc(-c2ccc(CO)o2)n1` .
Response line: > 100 µM

---

Each entry below carries its reported TGI.
- Tested on: NCI-H522 lung
- method.notes: NCI tumour cell line growth inhibition, 48 h
Expressed in µM, but write only the number.

Completed entries (count: 4):
molecule	TGI [µM]
CC[As](CC)SCC1OC(OC(C)=O)C(OC(C)=O)C(OC(C)=O)C1OC(C)=O (stereo unspecified)	3.2
c1ccc2c(c1)-c1ccccc1C2NC1=NCCO1	51.4
S=C(S)NCCN1CCNCC1	32.7
COC(=O)c1c2c(c(C)[n+]([O-])c1C)C(=O)C(NCc1ccc(O)cc1)=CC2=O	3.49

Prompt line: Report value: TGI, system: NCI-H522 lung, molecule: CCN(CC)CC(O)c1cc(-c2ccc(Cl)cc2)nc2c(C)c(Cl)ccc12 (stereo unspecified)
Response line: 3.29

Prompt line: Give the observed TGI of O=CC1OC(=O)c2cc(O)c(O)c(O)c2-c2c(cc(O)c(O)c2O)C(=O)OC1C1OC(=O)c2cc(O)c(O)c(O)c2-c2c(O)c(O)c3oc(=O)c4c(c(O)c(O)c5oc(=O)c2c3c54)-c2c(cc(O)c(O)c2O)C(=O)OCC1O (stereo unspecified) for NCI-H522 lung.
Response line: 85.7

Prompt line: # return TGI for `CC(C)C(=O)/C=C/c1c(Cl)cccc1Cl` , test system: NCI-H522 lung
Response line: 3.11

Prompt line: # assay system NCI-H522 lung: give TGI of Nc1n[nH]c2ccc([C@@H]3Nc4ccc5cn[nH]c5c4[C@H]4C5CCC(C5)[C@@H]34)cc12 (stereo partly specified)
Response line: 54.6

Prompt line: Write down the reported TGI (system: NCI-H522 lung) of `COc1ncc(-c2ccc3nccc(C#CCCCCC(=O)NO)c3c2)cc1NS(=O)(=O)c1ccc(F)cc1F`
Response line: 2.31

src = PubChem BioAssay (NCI)
